Target: T1, human TNFR2 on the cell membrane (human, UniProt P20333 23-461)
T1 construct: whole, on cells; One molecule for all cell formats; also called TNFR2-CHO cells; CHO-TNFR2
T1 sequence (looked up): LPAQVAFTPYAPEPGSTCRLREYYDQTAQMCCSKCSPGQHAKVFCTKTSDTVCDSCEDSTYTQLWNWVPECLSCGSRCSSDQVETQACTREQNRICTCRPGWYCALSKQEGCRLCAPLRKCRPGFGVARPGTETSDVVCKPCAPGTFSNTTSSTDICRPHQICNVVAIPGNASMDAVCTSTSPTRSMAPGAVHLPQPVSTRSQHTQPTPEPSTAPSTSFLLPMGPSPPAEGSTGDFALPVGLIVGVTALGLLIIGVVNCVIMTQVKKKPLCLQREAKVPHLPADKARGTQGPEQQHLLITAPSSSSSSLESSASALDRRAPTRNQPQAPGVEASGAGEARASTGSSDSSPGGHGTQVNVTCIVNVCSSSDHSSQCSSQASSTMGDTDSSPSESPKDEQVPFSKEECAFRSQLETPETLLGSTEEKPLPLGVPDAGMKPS
Assay: flow cytometry on CHO-TNFR2 cells

- binder: "11G2huVH4 + huVL3(P07274) (antibody, V domains shown, Humanized 11G2) VH: QVQLVQSGAEVKKPGASVKVSCKASGYTFITYDINWVRQAPGQGLEWIGWIYPRDGNTQYAQKFQGRVTMTTDTSTSTAYMELRSLRSDDTAVYYCARGDRDYGYFDVWGQGTTVTVSS VL: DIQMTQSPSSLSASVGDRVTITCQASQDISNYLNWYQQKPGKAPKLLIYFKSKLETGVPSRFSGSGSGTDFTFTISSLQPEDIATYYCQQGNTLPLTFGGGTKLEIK"
  EC50 (µg/mL): 0.0338
- binder: "11G2huVH5 + huVL1(P07266) (antibody, V domains shown, Humanized 11G2) VH: QVQLVQSGAEVKKPGASVKVSCKASGYTFITYDINWVRQATGQGLEWIGWIYPRDGNTQYAQKFQGRVTMTRNTSISTAYMELSSLRSEDTAVYYCARGDRDYGYFDVWGQGTTVTVSS VL: DIQMTPSTSSLSASVGDRVTITCRASQDISNYLNWYQQKPGKAVKLLIYFKSKLHSGVPSRFSGSGSGTDFTLTISSLQPEDFATYYCQQGNTLPLTFGGGTKLELK"
  EC50 (µg/mL): 0.0014
- binder: "11G2huVH4 + huVL2(P07269) (antibody, V domains shown, Humanized 11G2) VH: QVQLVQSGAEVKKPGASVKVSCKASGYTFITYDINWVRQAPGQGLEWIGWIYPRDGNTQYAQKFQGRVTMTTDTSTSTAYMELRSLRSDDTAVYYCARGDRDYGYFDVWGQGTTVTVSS VL: DIQMTQSPSSLSASVGDRVTITCRASQDISNYLNWYQQKPGKAPKLLIYFKSKLHSGVPSRFSGSGSGTDFTLTISSLQPEDFATYYCQQGNTLPLTFGGGTKLEIK"
  EC50 (µg/mL): 0.0273
